Reported pKi values follow for various compounds
TARGET_SYSTEM: Urotensin-2 receptor (Homo sapiens, UniProt Q9UKP6)
Sequence (Q9UKP6 whole entry): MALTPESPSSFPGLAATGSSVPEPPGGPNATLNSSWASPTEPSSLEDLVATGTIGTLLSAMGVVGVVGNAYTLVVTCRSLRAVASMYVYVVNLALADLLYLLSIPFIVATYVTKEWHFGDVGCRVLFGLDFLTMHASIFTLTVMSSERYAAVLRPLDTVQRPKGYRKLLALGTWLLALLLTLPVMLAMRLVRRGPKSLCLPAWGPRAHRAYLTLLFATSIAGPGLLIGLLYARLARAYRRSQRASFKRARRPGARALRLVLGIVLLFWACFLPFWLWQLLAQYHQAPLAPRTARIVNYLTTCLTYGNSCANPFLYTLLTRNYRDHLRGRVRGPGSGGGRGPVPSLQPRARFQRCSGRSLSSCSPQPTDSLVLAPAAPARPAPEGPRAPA
METHOD_DESCRIPTION: Displacement of [125I]human urotensin-2 from human GPR14 transfected in CHO cells
pKi: −log10 of the molar value. Positions of bridges follow the written chain, without caps; N, C: chain ends. Non-standard residues stand in square brackets, D forms with d. Residues, ends and D or L forms follow the SMILES beside them. Tyr(3-NO2) = N[C@@H](Cc1ccc(O)c([N+](=O)[O-])c1)C(=O)O; Tyr(3-I) = N[C@@H](Cc1ccc(O)c(I)c1)C(=O)O; Cha = N[C@@H](CC1CCCCC1)C(=O)O; pGlu = O=C1CC[C@@H](C(=O)O)N1; Aib = CC(C)(N)C(=O)O
PROPERTY: pKi

- CC(C)[C@H](NC(=O)[C@@H]1CSSC[C@H](NC(=O)[C@@H]2CCC(=O)N2)C(=O)N[C@@H](Cc2ccccc2)C(=O)N[C@@H](Cc2c[nH]c3ccccc23)C(=O)N[C@@H](CCCCN)C(=O)N[C@@H](Cc2ccc(O)cc2)C(=O)N1)C(=O)O ([pGlu]CFWKYCV-OH; disulfide 2-7): 9.04
- CC(C)[C@H](NC(=O)[C@@H]1CSSC[C@H](NC(=O)[C@@H](N)CC(=O)O)C(=O)N[C@@H](CC2CCCCC2)C(=O)N[C@@H](Cc2c[nH]c3ccccc23)C(=O)N[C@@H](CCCCN)C(=O)N[C@@H](Cc2ccc(O)c(I)c2)C(=O)N1)C(=O)O (H-DC[Cha]WK[Tyr(3-I)]CV-OH; disulfide 2-7): 7.71
- CC(C)C[C@@H]1NC(=O)[C@@H](NC(=O)[C@@H](N)CC(=O)O)CSSC[C@@H](C(=O)N[C@H](C(=O)O)C(C)C)NC(=O)[C@H](Cc2ccc(O)cc2)NC(=O)[C@H](CCCCN)NC(=O)[C@H](Cc2c[nH]c3ccccc23)NC1=O (H-DCLWKYCV-OH; disulfide 2-7): 6.88
- CC(C)[C@H](NC(=O)[C@@H]1CSSC[C@H](NC(=O)[C@@H](N)CC(=O)O)C(=O)N[C@@H](CC2CCCCC2)C(=O)N[C@@H](Cc2c[nH]c3ccccc23)C(=O)N[C@@H](CCCCN)C(=O)N[C@@H](Cc2ccc(O)cc2)C(=O)N1)C(=O)O: 6.39
- CC(C)[C@H](NC(=O)[C@@H]1CSSC[C@H](NC(=O)[C@@H](N)CC(=O)O)C(=O)N[C@@H](Cc2ccccc2)C(=O)N[C@@H](Cc2c[nH]c3ccccc23)C(=O)N[C@@H](CCCCN)C(=O)N[C@@H](Cc2ccc(O)c([N+](=O)[O-])c2)C(=O)N1)C(=O)O (H-DCFWK[Tyr(3-NO2)]CV-OH; disulfide 2-7): 8.62
- CC(C)[C@H](NC(=O)[C@@H]1CSSC[C@H](NC(=O)C(C)(C)N)C(=O)N[C@@H](Cc2ccccc2)C(=O)N[C@@H](Cc2c[nH]c3ccccc23)C(=O)N[C@@H](CCCCN)C(=O)N[C@@H](Cc2ccc(O)cc2)C(=O)N1)C(=O)O (H-[Aib]CFWKYCV-OH; disulfide 2-7): 8.65

---

Species: Rattus norvegicus
METHOD_DESCRIPTION: Agonist activity in rat aortic ring contraction assay
Type: functional
STATED_CONDITIONS: Aorta
Positions of bridges follow the written chain, without caps; N, C: chain ends. Residues, ends and D or L forms follow the SMILES beside them.
Reported EC50 values follow for various molecules
PROPERTY: EC50

- CC(C)C[C@@H]1NC(=O)[C@@H](NC(=O)[C@@H](N)CC(=O)O)CSSC[C@@H](C(=O)N[C@H](C(=O)O)C(C)C)NC(=O)[C@H](Cc2ccc(O)cc2)NC(=O)[C@H](CCCCN)NC(=O)[C@H](Cc2c[nH]c3ccccc23)NC1=O (H-DCLWKYCV-OH; disulfide 2-7): > 10 µM
- CC(C)[C@H](NC(=O)[C@@H]1CSSC[C@H](NC(=O)[C@@H](N)CC(=O)O)C(=O)N[C@H](CC2CCCCC2)C(=O)N[C@@H](Cc2c[nH]c3ccccc23)C(=O)N[C@@H](CCCCN)C(=O)N[C@@H](Cc2ccc(O)cc2)C(=O)N1)C(=O)O: > 10 µM
- CC(C)[C@H](NC(=O)[C@@H]1CSSC[C@H](NC(=O)[C@@H](N)CC(=O)O)C(=O)N[C@@H](CC2CCCCC2)C(=O)N[C@@H](Cc2c[nH]c3ccccc23)C(=O)N[C@@H](CCCCN)C(=O)N[C@@H](Cc2ccc(O)cc2)C(=O)N1)C(=O)O: > 10 µM
